FYI, the data here is from patent US20250320312A1.

assayedTarget: Peptide 5: Biotin-…-[Tyr(PC)]-acid
Sequence (peptide, as listed by the source): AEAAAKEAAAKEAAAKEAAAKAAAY
method: scFv ELISA
observedProperty: OD450 (OD450)
Report as a plain number; the unit OD450 is understood.

Which OD450 reading was recorded for the binder PcOxP_DB02_C01 (scFv, V domains shown, scFv in periplasmic extract) VH: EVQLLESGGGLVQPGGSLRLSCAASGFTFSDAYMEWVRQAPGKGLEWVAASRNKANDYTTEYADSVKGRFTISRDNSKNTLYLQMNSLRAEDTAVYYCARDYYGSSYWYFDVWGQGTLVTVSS VL: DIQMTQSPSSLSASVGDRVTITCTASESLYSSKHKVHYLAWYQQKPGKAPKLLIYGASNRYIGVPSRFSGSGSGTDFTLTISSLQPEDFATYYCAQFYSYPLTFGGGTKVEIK ?
1.47

// next record PcOxP_DB01_G06 (scFv, V domains shown, scFv in periplasmic extract) VH: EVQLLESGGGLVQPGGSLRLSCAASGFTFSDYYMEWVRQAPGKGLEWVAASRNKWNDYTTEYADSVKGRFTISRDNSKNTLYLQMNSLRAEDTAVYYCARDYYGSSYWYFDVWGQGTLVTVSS VL: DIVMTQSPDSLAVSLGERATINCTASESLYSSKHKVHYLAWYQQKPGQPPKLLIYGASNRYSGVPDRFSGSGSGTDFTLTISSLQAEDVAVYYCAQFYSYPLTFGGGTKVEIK
1.32

What do you get for PcOxP_DB02_G05 (scFv, V domains shown, scFv in periplasmic extract) VH: EVQLLESGGGLVQPGGSLRLSCAASGFTFSDFYMEWVRQAPGKGLEWVAASRNKANDYTTEYADSVKGRFTISRDNSKNTLYLQMNSLRAEDTAVYYCARDYYGSSHWYFDVWGQGTLVTVSS VL: DIVMTQSPDSLAVSLGERATINCTASESLYSSKHKLHYLAWYQQKPGQPPKLLIYGASNRYIGVPDRFSGSGSGTDFTLTISSLQAEDVAVYYCGQFYSYPLTFGGGTKVEIK ?
1.8

Next up: PcOxP_DB03_A09 (scFv, V domains shown, scFv in periplasmic extract) VH: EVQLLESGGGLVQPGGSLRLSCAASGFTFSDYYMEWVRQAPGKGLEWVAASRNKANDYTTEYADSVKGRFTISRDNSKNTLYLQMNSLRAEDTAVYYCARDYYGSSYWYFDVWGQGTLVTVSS VL: DIQMTQSPSSLSASVGDRVTITCTASESLYSSKHKVHYLAWYQQKPGKAPKLLIYGASNRGIGVPSRFSGSGSGTDFTLTISSLQPEDFATYYCAQFYSYPLTFGGGTKVEIK
1.09

Please give the result for PcOxP_DB02_G02 (scFv, V domains shown, scFv in periplasmic extract) VH: EVQLLESGGGLVQPGGSLRLSCAASGFGFSDFYMEWVRQAPGKGLEWVAASRNKANDYTTEYADSVKGRFTISRDNSKNTLYLQMNSLRAEDTAVYYCARDYYGSSYWYFDVWGQGTLVTVSS VL: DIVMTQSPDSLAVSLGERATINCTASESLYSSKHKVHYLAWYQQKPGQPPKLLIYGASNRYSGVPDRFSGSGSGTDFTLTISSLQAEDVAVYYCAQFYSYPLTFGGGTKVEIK too.
1.13
